# Tested on: YT (IL-2 2.5 ng/mL)
# method description: drug sensitivity score (DSS) (DSS units); higher = more sensitive; extreme values may be limits of the assay
# details: 72 h
measured attribute: drug sensitivity score
Answer with the value's number alone.

[Q] I have this compound here, CNC(=O)c1cccc2cc(Oc3ccnc4cc(OCC5(N)CC5)c(OC)cc34)ccc12 [Lucitanib] (max concentration tested 10000 nM) , and I need its recorded drug sensitivity score.
[A] 2.92

[Q] Next up: CC(=O)c1c(C)c2cnc(Nc3ccc(N4CCNCC4)cn3)nc2n(C2CCCC2)c1=O [Palbociclib] (max concentration tested 10000 nM)
[A] 6.16

[Q] Further, for O=S(=O)(c1cccc2c(O)nccc12)N1CCCNCC1 [Hydroxyfasudil] (max concentration tested 37500 nM) ?
[A] 0

[Q] Further, for COC(=O)c1ccc2c(c1)NC(=O)/C2=C(\Nc1ccc(N(C)C(=O)CN2CCN(C)CC2)cc1)c1ccccc1 [Nintedanib] (max concentration tested 10000 nM) ?
[A] 6.61

[Q] Then OC[C@H]1O[C@@H](n2cnc3c2N=CNC[C@H]3O)C[C@@H]1O [Pentostatin] (max concentration tested 10000 nM) ?
[A] 0

[Q] Next entry: O=C(/C=C/c1cccnc1)NCCCCC1CCN(C(=O)c2ccccc2)CC1 [Daporinad] (max concentration tested 1000 nM)
[A] 26.6

----------
# Tested on: normal primary NK cells, pool 1 (3 donors), resting (IL-2 0 ng/mL)
# method description: percent inhibition of viability; higher = more inhibition
# details: 72 h; 10000 nM
measured attribute: percent inhibition of viability (%)
I only need the number, in %, no unit after it.

[Q] Fill in: percent inhibition of viability of Oc1ncc(N(CCCl)CCCl)c(O)n1 [Uracil mustard] (max concentration tested 10000 nM) is ___
[A] 16.2

[Q] # iterate: Cc1[nH]c(/C=C2\C(=O)Nc3ccccc32)c(C)c1CCC(=O)O [Orantinib] (max concentration tested 10000 nM)
[A] 21.7

[Q] // same read-out, input: CC1(C)CCC(CN2CCN(c3ccc(C(=O)NS(=O)(=O)c4ccc(NCC5CCOCC5)c([N+](=O)[O-])c4)c(Oc4cnc5[nH]ccc5c4)c3)CC2)=C(c2ccc(Cl)cc2)C1 [Venetoclax] (max concentration tested 10000 nM)
[A] 91.2

[Q] Try this compound too: COc1cc2c(cc1O)CC[C@@H]1[C@@H]2CC[C@]2(C)[C@@H](O)CC[C@@H]12 [2-methoxyestradiol] (max concentration tested 10000 nM)
[A] 29.8

[Q] Same thing, different compound: NC(=O)c1ccc(I)c([N+](=O)[O-])c1 [Iniparib] (max concentration tested 10000 nM)
[A] 78.9

[Q] And for O=C(O)CC1CC(c2ccccc2)=NO1 (stereo unspecified) [VGX-1027] (max concentration tested 10000 nM) ?
[A] 5.12

----------
# System: NK-YS (IL-2 2.5 ng/mL)
# method description: percent inhibition of viability; higher = more inhibition
# details: 72 h; 1000 nM
For each record, write down the corresponding percent inhibition of viability.
Use % as the unit, but write only the number.

[Q] Lab request: please report percent inhibition of viability under test system NK-YS (IL-2 2.5 ng/mL) for O=C(/C=C/c1cccnc1)NCCCCC1CCN(C(=O)c2ccccc2)CC1 [Daporinad] (max concentration tested 1000 nM)
[A] 109

[Q] Can you check COC(=O)c1ccc2c(c1)NC(=O)/C2=C(\Nc1ccc(N(C)C(=O)CN2CCN(C)CC2)cc1)c1ccccc1 [Nintedanib] (max concentration tested 10000 nM) next?
[A] 20.9

[Q] Also Cc1cc(Nc2cc(CN3CCOCC3)c3nc(C)c(Cc4ccc(Cl)cc4F)n3n2)n[nH]1 [Gandotinib] (max concentration tested 10000 nM) , if possible.
[A] 77.5

----------
# Test system: NKL (IL-2 2.5 ng/mL)
# method description: percent inhibition of viability; higher = more inhibition
# details: 72 h; 10 nM
For each of the molecules below, state its percent inhibition of viability.
Output spec: scalar in %, unitless text.

[Q] Reported percent inhibition of viability for COc1cc2c(cc1O)CC[C@@H]1[C@@H]2CC[C@]2(C)[C@@H](O)CC[C@@H]12 [2-methoxyestradiol] (max concentration tested 10000 nM) : what is it?
[A] -6.41

[Q] Then what about the molecule O=C(Nc1cccc(Cl)c1)Nc1ncc(CCNc2ncnc3ccsc23)s1 [SNS-314] (max concentration tested 1000 nM) ?
[A] 6.03

[Q] Queued: CC(C)C[C@@H](C(=O)N[C@H](C(=O)OC1CCCC1)c1ccccc1)[C@H](O)C(=O)NO [Tosedostat] (max concentration tested 10000 nM)
[A] 17

----------
# Test system: normal primary NK cells, pool 1 (3 donors) (IL-2 2.5 ng/mL)
# method description: relative IC50 (inflection point of fitted viability curve, relative to fitted max inhibition); higher = less sensitive
# details: 72 h
Given measured relative IC50, output TRUE if it is greater than or equal to 300 nM and FALSE if not.

[Q] Could you verify whether the entry CCS(=O)(=O)N1CC(CC#N)(n2cc(-c3ncnc4[nH]ccc34)cn2)C1 shows relative IC50 of no less than 300 nM?
[A] FALSE

[Q] Also COc1cc([C@@H]2c3cc4c(cc3[C@@H](O[C@@H]3O[C@@H]5CO[C@@H](c6cccs6)O[C@H]5[C@H](O)[C@H]3O)[C@H]3COC(=O)[C@H]23)OCO4)cc(OC)c1O [Teniposide] ?
[A] TRUE

[Q] And for CC1(C)CCC(CN2CCN(c3ccc(C(=O)NS(=O)(=O)c4ccc(NCC5CCOCC5)c([N+](=O)[O-])c4)c(Oc4cnc5[nH]ccc5c4)c3)CC2)=C(c2ccc(Cl)cc2)C1 ?
[A] TRUE

[Q] Now the molecule CNC(=O)c1cc(Oc2ccc(NC(=O)Nc3cc(C(C)(C)C)nn3-c3ccc4ncccc4c3)c(F)c2)ccn1
[A] TRUE

[Q] Input NC(=O)c1ccc(I)c([N+](=O)[O-])c1
[A] TRUE

[Q] Another molecule to look at: C[C@@H]1C[C@H]2O[C@@H]2/C=C\C=C\C(=O)Cc2c(Cl)c(O)cc(O)c2C(=O)O1
[A] FALSE

[Q] Let us now turn to CCN(CC)C(=S)SSC(=S)N(CC)CC
[A] TRUE

[Q] Try C[C@H]1C[C@@H]2[C@H]([C@@H](O)C[C@@]3(C)[C@H]2CC[C@]3(O)C(=O)CO)[C@@]2(C)C=CC(=O)C=C12 next.
[A] FALSE

[Q] // query: Cc1[nH]c2ccccc2c1CCNCc1ccc(/C=C/C(=O)NO)cc1
[A] FALSE

[Q] How about this molecule: O=C(/C=C\n1cnc(-c2cc(C(F)(F)F)cc(C(F)(F)F)c2)n1)NNc1cnccn1 [Selinexor]
[A] FALSE

[Q] Now this one: COC(=O)c1ccc2c(c1)NC(=O)/C2=C(\Nc1ccc(N(C)C(=O)CN2CCN(C)CC2)cc1)c1ccccc1
[A] TRUE

[Q] Further, for O=C1NC(=O)/C(=C/c2ccc3nccc(-c4ccncc4)c3c2)S1 ?
[A] TRUE

----------
# System: normal primary NK cells, pool 2 (3 donors) (IL-2 2.5 ng/mL)
# method description: percent inhibition of viability; higher = more inhibition
# details: 72 h; 0.1 nM
Can you tell me percent inhibition of viability for the items I'm about to list?
Give the value, in units of %, as a plain number.

[Q] Consider the compound O=C(c1ccc(F)c(F)c1Nc1ccc(I)cc1F)N1CC(O)([C@@H]2CCCCN2)C1 [Cobimetinib] (max concentration tested 1000 nM) and give its measured percent inhibition of viability.
[A] -3.62

[Q] Field entry: FC(F)(F)c1ccc(/C=C/c2nc(COc3ccc(CCCCn4ccnn4)cc3)co2)cc1 [Mubritinib] (max concentration tested 1000 nM)
[A] -5.29

[Q] Also CNC(=O)c1cc(Oc2ccc(NC(=O)Nc3cc(C(C)(C)C)nn3-c3ccc4ncccc4c3)c(F)c2)ccn1 [Rebastinib] (max concentration tested 1000 nM) , if possible.
[A] -4.03

[Q] And the next one, COc1ncc(-c2ccc3nccc(-c4ccnnc4)c3c2)cc1NS(=O)(=O)c1ccc(F)cc1F [Omipalisib] (max concentration tested 1000 nM) ?
[A] -6.47

[Q] Repeat with CC[C@]1(O)C[C@@H]2CN(CCc3c([nH]c4ccccc34)[C@@](C(=O)OC)(c3cc4c(cc3OC)N(C)[C@H]3[C@@](O)(C(=O)OC)[C@H](OC(C)=O)[C@]5(CC)C=CCN6CC[C@]43[C@@H]65)C2)C1 [Vinblastine] (max concentration tested 1000 nM)
[A] -6.34

[Q] How about Cc1cnc(NC(=O)Nc2cc(Br)c(C)cc2OC[C@@H]2CNCCO2)cn1 [Rabusertib] (max concentration tested 1000 nM) ?
[A] -8.45

[Q] For Cc1c2oc3c(C)ccc(C(=O)N[C@@H]4C(=O)N[C@H](C(C)C)C(=O)N5CCC[C@H]5C(=O)N(C)CC(=O)N(C)[C@@H](C(C)C)C(=O)O[C@@H]4C)c3nc-2c(C(=O)N[C@@H]2C(=O)N[C@H](C(C)C)C(=O)N3CCC[C@H]3C(=O)N(C)CC(=O)N(C)[C@@H](C(C)C)C(=O)O[C@@H]2C)c(N)c1=O [Dactinomycin] (max concentration tested 1000 nM) then?
[A] -13.2

Values compiled from the supplement of paper PMC5908809.
